From: patent US20260183370A1

# TESTED_SYSTEM: T1, NPR-C (natriuretic peptide receptor C), expressed on Hek293 cells (UniProt P17342 27-541, limits assumed)
# T1 construct: whole, on cells
# T1 sequence (looked up): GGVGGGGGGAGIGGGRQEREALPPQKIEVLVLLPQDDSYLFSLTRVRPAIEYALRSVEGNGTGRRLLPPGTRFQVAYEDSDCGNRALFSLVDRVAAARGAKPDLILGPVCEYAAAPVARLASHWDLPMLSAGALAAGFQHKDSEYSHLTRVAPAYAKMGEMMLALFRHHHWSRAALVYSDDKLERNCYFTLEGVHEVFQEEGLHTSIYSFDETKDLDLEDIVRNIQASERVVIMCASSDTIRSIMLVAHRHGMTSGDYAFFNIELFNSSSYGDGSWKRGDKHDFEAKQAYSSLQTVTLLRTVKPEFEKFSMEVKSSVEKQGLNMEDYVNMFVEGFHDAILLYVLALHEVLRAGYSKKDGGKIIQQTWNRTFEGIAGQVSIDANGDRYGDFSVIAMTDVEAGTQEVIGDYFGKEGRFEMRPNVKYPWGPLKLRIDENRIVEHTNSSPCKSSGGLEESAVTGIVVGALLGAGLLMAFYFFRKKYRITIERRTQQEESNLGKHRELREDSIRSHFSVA
# METHOD: competition with fluorescein-labelled CNP-38 27d on NPR-C expressing Hek293 cells, flow cytometry (MFI), 4PL fit; ratio to CNP-38
Bridge positions count the residues as written; N and C are the ends. Ends that are not written are not given here.
Give IC50 of PEGylated CNP-38/IC50 CNP-38 for every item shown.
Express your answer in ratio, writing the number without its unit.

Complete the entry with IC50 of PEGylated CNP-38/IC50 CNP-38 for LQEHPNARKYKGANKKGLSKGCFGLKLDRIGSMSGLGC (disulfide 22-38; not fully specified (residue 26), This is a reversible conjugate with an in vitro release half-life of 8.5 d) [Reversible Lys26 CNP-38 PEG2x20 kDa conjugate 10f]
12

Complete the entry with IC50 of PEGylated CNP-38/IC50 CNP-38 for LQEHPNARKYKGANKKGLSKGCFGLKLDRIGSMSGLGC (not fully specified; Lys26 side chain attached through a reversible Asn-linker (maleimidohexanoyl) to a thiol arm of 4-arm-thiol-PEG 40 kDa; disulfide Cys22-Cys38) [Conjugate 31d (4-arm PEG 40 kDa, Lys26 CNP-38, reversible conjugate)]
1.7

Complete the entry with IC50 of PEGylated CNP-38/IC50 CNP-38 for LQEHPNARKYKGANKKGLSKGCFGLKLDRIGSMSGLGC (disulfide 22-38; not fully specified (residue 26)) [Permanent Lys26 CNP-38 PEG4x10 kDa conjugate 12g]
143
